The origin of these recorded values is ChEMBL document CHEMBL1201862.

- Tested on: Streptococcus
- PROTOCOL SUMMARY: Group A Streptococcus viability loss, dose response, counter-screen for streptokinase expression inhibitor project, luminescence, BacTiterGlo (AID 1915);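 note: potency for reduction of bacterial viability or growth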
- Assay type: functional, organism-based
Activity calls are given as the source filed them.
Overview of recorded EC50 for various compounds
MEASURED METRIC: EC50

O=C(NCC1CCN(Cc2ccccc2Cl)CC1)Nc1cccc(Cl)c1 > 150 µM (not active)
CC(C)n1c(=O)c2c(=O)cc(O)oc2c2ccccc21 > 150 µM (not active)
Cc1cc(C)c(C)c(OCCCOc2cccc3cccnc23)c1 39.4 µM (active)
CCCCCCCCCCCCCCCC[N+](C)(C)CC 8.57 µM (active)
O=C(OCc1ccc(-c2ccccc2)cc1)c1cccc(O)c1 19 µM (active)
CCN(CC)c1ccc(/C=N/NC(=S)NCc2ccccc2)c(O)c1 > 150 µM (not active)

====

- SYSTEM TESTED: Corticotropin-releasing factor receptor 2/Corticotropin-releasing factor-binding protein (Homo sapiens, UniProt P24387+Q13324)
- Sequence (Q13324 whole entry): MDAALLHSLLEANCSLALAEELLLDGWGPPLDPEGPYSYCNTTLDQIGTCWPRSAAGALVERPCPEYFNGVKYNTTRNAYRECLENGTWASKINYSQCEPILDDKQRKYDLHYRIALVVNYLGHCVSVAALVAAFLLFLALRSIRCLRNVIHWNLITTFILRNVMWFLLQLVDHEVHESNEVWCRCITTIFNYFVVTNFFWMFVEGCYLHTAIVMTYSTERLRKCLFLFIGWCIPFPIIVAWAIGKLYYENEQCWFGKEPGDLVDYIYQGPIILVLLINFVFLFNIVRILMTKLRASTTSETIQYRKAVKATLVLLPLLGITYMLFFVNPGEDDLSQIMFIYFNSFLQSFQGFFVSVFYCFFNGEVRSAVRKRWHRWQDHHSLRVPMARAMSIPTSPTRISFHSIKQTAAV
- Sequence (P24387 whole entry): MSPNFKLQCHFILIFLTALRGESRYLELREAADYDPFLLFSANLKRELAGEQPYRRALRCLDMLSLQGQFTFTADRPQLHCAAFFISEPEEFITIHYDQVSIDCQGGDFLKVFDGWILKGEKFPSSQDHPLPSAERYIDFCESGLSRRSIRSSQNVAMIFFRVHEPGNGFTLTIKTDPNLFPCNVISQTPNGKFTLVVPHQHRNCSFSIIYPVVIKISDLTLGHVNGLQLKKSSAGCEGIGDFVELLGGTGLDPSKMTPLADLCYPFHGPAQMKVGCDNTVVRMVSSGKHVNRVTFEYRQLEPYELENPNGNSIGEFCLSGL
- PROTOCOL SUMMARY: Dose Response confirmation of uHTS hits for small molecule antagonists of the CRF-binding protein and CRF-R2 receptor complex.
- Format: functional
- EXPERIMENTAL CONDITIONS: read-out: IC50_Mean
Structures can show the parent of a compound that is named as a salt. Calls of active or inactive are those of the source.
Outcomes: active, inactive

COMPOUND	GROUP
NC(=O)c1ccc2nc(-c3ccccc3)c(-c3ccccc3)nc2c1	inactive
CCCCNC(=O)c1cn(CC)c2ccc(S(=O)(=O)N3CCCCCC3)cc2c1=O	inactive
CCOc1ccc(S(=O)(=O)Nc2cccnc2)cc1	inactive
COc1ccc(C2CCCN2C(=O)Nc2ccc(C)c(C)c2)cc1OC (stereo unspecified)	active
CN(CCOc1ccc(CC2SC(=O)NC2=O)cc1)c1ccccn1 (stereo unspecified) [ROSIGLITAZONE MALEATE]	inactive
N#C/C(=C(/O)COc1ccc(Cl)cc1)c1nc2ccccc2s1	active

====

- SYSTEM TESTED: Cytochrome P450 2C19 (Homo sapiens, UniProt P33261)
- Sequence (P33261 whole entry): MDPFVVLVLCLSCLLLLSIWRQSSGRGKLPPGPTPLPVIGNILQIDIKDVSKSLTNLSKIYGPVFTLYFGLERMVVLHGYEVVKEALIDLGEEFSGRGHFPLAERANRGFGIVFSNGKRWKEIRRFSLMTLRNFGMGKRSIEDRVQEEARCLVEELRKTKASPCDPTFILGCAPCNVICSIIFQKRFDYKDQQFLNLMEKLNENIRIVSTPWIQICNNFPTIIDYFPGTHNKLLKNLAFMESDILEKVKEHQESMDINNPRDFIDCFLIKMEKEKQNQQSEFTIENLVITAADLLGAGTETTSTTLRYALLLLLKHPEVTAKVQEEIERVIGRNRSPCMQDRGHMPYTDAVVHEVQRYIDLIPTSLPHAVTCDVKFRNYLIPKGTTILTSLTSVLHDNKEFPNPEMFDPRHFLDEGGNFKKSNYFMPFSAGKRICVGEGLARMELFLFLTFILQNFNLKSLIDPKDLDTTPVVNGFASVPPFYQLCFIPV
- PROTOCOL SUMMARY: Cytochrome panel assay with activity outcomes. Panel member name: p450-cyp2c19 Compounds with AC50 equal or less than 10 uM are considered active
- Type: functional
- EXPERIMENTAL CONDITIONS: read-out: AC50
MEASURED METRIC: AC50

CCCCC#Cc1nc(NC)c2ncn([C@@H]3O[C@@H](CO)[C@H](O)[C@H]3O)c2n1 3.16 µM (inconclusive)
C[N+](C)(CCCCCC[N+](C)(C)CCCN1C(=O)c2ccccc2C1=O)CCCN1C(=O)c2ccccc2C1=O 31.6 µM (inconclusive)
O=C(O)CSCNC(=O)CC12CC3CC(CC(C3)C1)C2 28.2 µM (inconclusive)
CCCn1c(=O)c2[nH]c(-c3ccccc3)nc2n(CCC)c1=O 10 µM (inconclusive)

====

- SYSTEM TESTED: Carboxy-terminal domain RNA polymerase II polypeptide A small phosphatase 1 (Homo sapiens, UniProt Q9GZU7)
- Sequence (Q9GZU7 whole entry, the tested form may be a part): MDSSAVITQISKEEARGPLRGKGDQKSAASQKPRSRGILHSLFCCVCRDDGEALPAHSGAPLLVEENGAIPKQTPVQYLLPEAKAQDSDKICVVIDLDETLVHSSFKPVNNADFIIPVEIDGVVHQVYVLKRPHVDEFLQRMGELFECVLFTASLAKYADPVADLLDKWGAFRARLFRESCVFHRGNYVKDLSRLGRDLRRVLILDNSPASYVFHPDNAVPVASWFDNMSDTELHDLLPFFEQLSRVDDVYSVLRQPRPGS
- PROTOCOL SUMMARY: inhibitors of CTDSP1, concentration-response testing, biochemical assay, absorbance-based, actives from ultra-high-throughput screening (AID 540297)
- Format: functional
Activity calls are given as the source filed them.
MEASURED METRIC: IC50

COc1ccc(Br)cc1/C=C(\C(=O)O)c1ccc(S(=O)(=O)N2CCCC2)s1 8.63 µM (active)
O=C(NCc1ccco1)c1ccc2c(=O)n(Cc3ccco3)c(SCC(=O)N3CCCC3)nc2c1 6.12 µM (active)
NS(=O)(=O)c1cccc(NC(=O)c2ccc3[nH]cnc3c2)c1 7.41 µM (active)
O=C(N/N=C/c1cccc(OC2CSC2)c1)c1ccccc1O 6.78 µM (active)
CC(=O)C(C[N+]1(C)CCCCC1)=NO 3.4 µM (active)
CCOc1ccc(/C=C2\SC(=S)N(CCC(=O)Nc3ccc(C(=O)O)cc3)C2=O)cc1 1.88 µM (active)
